- assay_method_text: Non-competitive inhibition of pyruvate carboxylase (unknown origin)
- Set-up: species or system Homo sapiens
pKi: −log10 of the molar value.
measured_attribute: pKi

molecule	measured_attribute	reported_measurement
Nc1ncnc2c1ncn2[C@@H]1O[C@@H]2CO[P@@](=O)(O)O[C@H]3[C@@H](O)[C@H](n4cnc5c(N)ncnc54)O[C@@H]3CO[P@@](=O)(O)O[C@H]2[C@H]1O	pKi	6.15
CCCCCCCCOC(=O)c1cc(O)c(O)c(O)c1 [OCTYL_GALLATE]	pKi	6.15

---

- Tested on: HepG2
- assay_method_text: Antiproliferative activity against human HepG2 cells assessed as inhibition of cell growth measured after 48 hrs by MTT assay
- Format: functional, cell-based
- measurement_context: HepG2, 48 h
Reported IC50 values are given for each entry in this list.

structure_notation	IC50
COc1cc(CCc2cc(O)c(OC)c(OC)c2)ccc1O	1.09 µM
COc1cc(O[C@@H]2O[C@H](CO)[C@@H](O)[C@H](O)[C@H]2O)cc2c1-c1c(O)cccc1[C@H](O)C2	> 100 µM
COc1cc(O)cc(CCc2ccc(O)c(OC)c2)c1	1.88 µM
COc1cc(O)c2c(c1)CCc1cccc(O)c1-2	1.74 µM
COc1cc(O)cc2c1-c1c(O)cccc1C[C@@H]2O	> 100 µM
COc1cc(O)cc2c1-c1c(O)cc(O)cc1C[C@@H]2O	> 100 µM
COc1cc(O)cc2c1-c1c(O)cc(O)cc1[C@@H](O)C2	> 100 µM
OC[C@H]1O[C@@H](Oc2cccc3c2-c2c(O)cc(O)cc2C[C@H]3O)[C@H](O)[C@@H](O)[C@@H]1O	> 6.42 µM
COc1cc(O)cc(CCc2ccc(OC)c(O)c2)c1	> 100 µM
COc1cc(O)cc2c1-c1c(O)cccc1CC2	> 100 µM
COc1cc(CCc2cc(OC)c(O)c(OC)c2)ccc1O	3.02 µM

---

- assay_method_text: Competitive inhibition of pyruvate carboxylase (unknown origin) assessed as inhibition constant at varying concentrations of ATP
- Set-up: species or system Homo sapiens

structure_notation	Ki / nM
N[C@@H](CC(=O)O)C(=O)O	700
